- Species on record: Rattus norvegicus
- Protocol: Vasorelaxant potency determined by inhibition of methoxamine-contracted rat aorta
- Assay type: functional
- Measurement Setup: Rattus norvegicus, Aorta
pIC50: −log10 of the molar value.
Reported Metric: pIC50

CC1(C)Oc2ccc(C#N)cc2[C@@H](/N=C(\NC#N)Nc2ccc(F)cc2)[C@@H]1O : 5.85
CC1(C)Oc2ccc(C#N)cc2[C@@H](/N=C(\NC#N)Nc2ccc(O)cc2)[C@@H]1O : 5.66
CC1(C)Oc2ccc([N+](=O)[O-])cc2[C@@H](/N=C(\NC#N)Nc2ccccc2)[C@@H]1O : 5.70
